target: T1, human Claudin18.2 (human); assay: cell ELISA, Claudin18.2-expressing HEK293T cells
T1 construct: also called CLDN18.2
ENDPOINT: EC50 (nM)
Express it in nM; write the number only.

Here is how some binders turned out for EC50.
219F9B8 (antibody, V domains shown, mouse hybridoma mAb) VH: QAYLQQSGAELVRSGASVRMSCKASGYTFTSYNMHWVKQTPGQGLEWIGYIYPGNGHTNYNQKFKGKATLTADTSSSTAYMQISSLTSEDSAVYFCATGRGFAYWGQGTLVTVSA VL: DIVMTQSPSSLTVTAGEKVTMSCKSSQSLLNSGNQKNYLTWYQQKPGQPPKLLIYRASTRESGVPDRFTGSGSGTDFTLTISSVQAEDLAVYYCQNDYSYPLTFGVGTKLELK: 1.16
186G12H3 (antibody, V domains shown, mouse hybridoma mAb) VH: EVMLVESGGGLVKPGGSLKLSCAASRFTLSSYAMSWVRQTPEKRLEWVATISSGGSYTYYFDSVKGRFTISRDTAKNTLNLQMSSLRSEDTAMYYCARLYYGNALDYWGQGTSVTVSS VL: DIVMTQSPSSLTVTAGEKVTVSCKSSQSLLNSGNQKNYLTWYQQKPGQPPKLLIYWASTRESGVPDRFTGSGSGTDFTLTISSVQAEDLAVYYCQNNYIYPLTFGAGTTLELK: 2.21

From here, focus on the item given below.
[Q] # EC50 lookup, item 250F4G4 (antibody, V domains shown, mouse hybridoma mAb) VH: QAYLQQSGAELVRSGASVKMSCKASGYTFTSHNMHWVKQTPGQGLEWIGYIYPGNGRTNYNQKFKGKATLTADTSSSTAYMQISSLTSEDSAVYFCTRDYYGNSFAYWGQGTLVTVSA VL: DIVMTQSPSSLTEKVGERVSMSCKSSQSLFNSGNQKNYLTWYQQKPGQPPKLLIYWASTRESGVPDRFTGSGSGTDFTLTISSVQAEDLAVYYCQNDYWYPFTFGAGTKLELK
[A] 0.199

These data points were gathered from patent US20220073643A1.
